Assign pEC50 to each entry below.
System: PC12/HttN90Q103 cells
assayExplanation: CellTiter-Blue assay, rescue of HttN90Q103-induced cell death
Type: cell-based, rat
assaySetup: Rattus norvegicus, PC-12; CellTiter-Blue; single agent; sigmoidal fit of 12-step dose response; read-out: EC50
Text: In this stable PC12 line (PC12/HttN90Q103), transcription of the Htt transgene is driven by an ecdysone-regulated promoter such that the expression of HttN90Q103 can be turned on or off by the addition or removal of the non-steroidal ecdysone analog tebufenozide (teb). […]
# pEC50 = -log10(concentration in molar units)

C=CC[C@@H]1/C=C(\C)C[C@H](C)C[C@H](OC)[C@H]2O[C@@](O)(C(=O)C(=O)N3CCCC[C@H]3C(=O)O[C@H](/C(C)=C/[C@@H]3CC[C@@H](O)[C@H](OC)C3)[C@H](C)[C@@H](O)CC1=O)[C@H](C)C[C@@H]2OC yielded pEC50 of 7.00

C=C1C[C@@H]2[C@H](CC[C@]3(C)C(=O)CC[C@@H]23)[C@@]2(C)C=CC(=O)C=C12 yielded pEC50 of 5.82

C[C@H]1O[C@@H](O[C@H]2[C@@H](O)C[C@H](O[C@H]3[C@@H](O)C[C@H](O[C@H]4CC[C@@]5(C)[C@H](CC[C@@H]6[C@@H]5CC[C@]5(C)[C@@H](C7=CC(=O)OC7)CC[C@]65O)C4)O[C@@H]3C)O[C@@H]2C)C[C@H](O)[C@@H]1O yielded pEC50 of 5.46

C[C@]12C=CC(=O)C=C1CC[C@@H]1[C@@H]2CC[C@]2(C)OC(=O)CC[C@@H]12 yielded pEC50 of 5.12

COc1ccc(CNC(=O)Nc2ncc([N+](=O)[O-])s2)cc1 yielded pEC50 of 5.44
